From: patent US20080280999A1

- protocolDetails: Solubility in water
- Assay type: physicochemical
- Experimental: As used herein, the term “poorly water-soluble” or “poorly soluble” refers to having a solubility in water at 20° C. of less than 1%, i.e., a “sparingly soluble to practically insoluble, or insoluble drug” as described in Remington, The Science and Practice of Pharmacy, 21st Edition, p. 212, D. B. Troy, Ed., Lippincott Williams & Wilkins (2005).
endpoint: solubility

The molecule listed as CN(Cc1ccccc1)C(=O)[C@H](Cc1ccc2ccccc2c1)N(C)C(=O)[C@@H]1CCCN1c1nc(=O)c2ccccc2[nH]1 has a reported solubility of 10 µg/mL
